Target under test: T1, TNFR1 (Homo sapiens, UniProt P19438)
T1 chain: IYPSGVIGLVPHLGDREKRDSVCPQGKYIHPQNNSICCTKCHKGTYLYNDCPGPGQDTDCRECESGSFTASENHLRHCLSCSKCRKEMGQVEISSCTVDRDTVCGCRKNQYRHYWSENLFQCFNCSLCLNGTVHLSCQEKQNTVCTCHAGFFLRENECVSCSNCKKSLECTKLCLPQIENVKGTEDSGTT
Experiment notes: yeast display SC50
Metric: apparent Kd (screen) (nM)

E95A (designed binder) MTLQELLREEALRRAEAEAFRYALELLAEKFPEQKEYLLDLAEEIESQIRSLSGVDVEDVRKFLDKEWAWVKELLAEHPAELAEVEAARAARLAALRAEVEAKVAA : 0.593
V100S (designed binder) MTLQELLREEALRRAEAEAFRYALELLAEKFPEQKEYLLDLAEEIESQIRSLSGVDVEDVRKFLDKEWAWVKELLAEHPAELAEVEAARAARLAELRAESEAKVAA : 0.49
A102D (designed binder) MTLQELLREEALRRAEAEAFRYALELLAEKFPEQKEYLLDLAEEIESQIRSLSGVDVEDVRKFLDKEWAWVKELLAEHPAELAEVEAARAARLAELRAEVEDKVAA : 0.539
M1Q (designed binder) QTLQELLREEALRRAEAEAFRYALELLAEKFPEQKEYLLDLAEEIESQIRSLSGVDVEDVRKFLDKEWAWVKELLAEHPAELAEVEAARAARLAELRAEVEAKVAA : 0.593
E25Q (designed binder) MTLQELLREEALRRAEAEAFRYALQLLAEKFPEQKEYLLDLAEEIESQIRSLSGVDVEDVRKFLDKEWAWVKELLAEHPAELAEVEAARAARLAELRAEVEAKVAA : 0.539
R92V (designed binder) MTLQELLREEALRRAEAEAFRYALELLAEKFPEQKEYLLDLAEEIESQIRSLSGVDVEDVRKFLDKEWAWVKELLAEHPAELAEVEAARAAVLAELRAEVEAKVAA : 0.593

A = E84V (designed binder) MTLQELLREEALRRAEAEAFRYALELLAEKFPEQKEYLLDLAEEIESQIRSLSGVDVEDVRKFLDKEWAWVKELLAEHPAELAVVEAARAARLAELRAEVEAKVAA
B = V85A (designed binder) MTLQELLREEALRRAEAEAFRYALELLAEKFPEQKEYLLDLAEEIESQIRSLSGVDVEDVRKFLDKEWAWVKELLAEHPAELAEAEAARAARLAELRAEVEAKVAA
Enquiry: Of the two listed items, A and B , which carries the larger apparent Kd (screen) figure? // output: label of the selected item
Return: B
